Biological target: SpHse1
Assay: SPOT peptide array binding signal intensity (averaged, normalized) (arbitrary units (background-subtracted, floor 0; scale differs between SH3 domains)); higher = stronger binding of the SH3 domain to the peptide
measured-endpoint: SPOT peptide array binding signal intensity
One number for each entry.

Field: example entries. Status: answers known.
- KFIPSRPAPKPPSSA: 140
- GKKVRPLLVLLLSRA: 1200
- TSFKGRPKPPKTLKH: 79
- AVPPPPPPPPLPESL: 10.5
- SKAKRPKFLLDLQIK: 119
- TKIRRRPQQPLTDFT: 93

Batch lookup, SPOT peptide array binding signal intensity per entry.
1. LLLLFVPDSPYDPAI
2. KTRLRPAFIQQLWSS
3. RRRDFGAPANKRPRR
4. PLRRTVMSLPGNHDI
5. DRIRMFIRFPKFLLE
6. VPPPMQPPPIESSNL
7. LRWRHKFFLPAIAAI
8. LFMKGTPEFPKSGFS

1. 1440
2. 696
3. 108
4. 788
5. 1300
6. 163
7. 667
8. 335

The measurements presented in this section are drawn from the supplement of paper PMC4466140.
